Ref: paper PMC7414031

hemolysis at 1 h, 150 µM overview
protocolText: in vitro
Assay type: cell-based, rat (Sprague–Dawley)
conditionSummary: Sprague-Dawley, rat
Peptide text beside a SMILES is read from it.
Enter your answer as a number in %; do not include the unit.

CCCC[C@H](NC(=O)[C@H](CCCCN)NC(=O)[C@H](CCCCN)NC(=O)[C@@H](N)CCCCN)C(=O)N[C@@H](Cc1ccc2ccccc2c1)C(=O)N[C@@H](Cc1ccccc1)C(=O)N[C@@H](Cc1ccc2ccccc2c1)C(N)=O [Compound 18] (HELM PEPTIDE1{K.K.K.[Nle].[O=C([C@H](Cc1ccc2ccccc2c1)N[*:1])[*:2]].F.[O=C([C@H](Cc1ccc2ccccc2c1)N[*:1])[*:2]].[am]}$$$$V2.0)	98.6

Now for another entry.
Ask: Consider the molecule CC(C)C[C@H](NC(=O)[C@H](CCCCN)NC(=O)[C@H](CCCCN)NC(=O)[C@@H](N)CCCCN)C(=O)N[C@@H](Cc1cccc2ccccc12)C(=O)N[C@@H](Cc1ccccc1)C(=O)N[C@@H](Cc1cccc2ccccc12)C(N)=O [Compound 7, Lys-Lys-Lys-Leu-(1-Nal)Ala-Phe(1-Nal)Ala] (HELM PEPTIDE1{K.K.K.L.[O=C([C@H](Cc1cccc2ccccc12)N[*:1])[*:2]].F.[O=C([C@H](Cc1cccc2ccccc12)N[*:1])[*:2]].[am]}$$$$V2.0) and give its recorded hemolysis at 1 h, 150 µM.
Reply: 54.3

====

Test system: human erythrocytes
protocolText: in vitro
Assay type: cell-based
conditionSummary: red cells of human
Square brackets hold non-standard residues; d marks the D form. Peptide text beside a SMILES is read from it. 2Nal = N[C@@H](Cc1ccc2ccccc2c1)C(=O)O; Nlys = NCCCCNCC(=O)O
Recorded IC50 for the following compounds

Ask: In one line, give reported IC50 of the entry CC(C)C[C@@H](NC(=O)[C@@H](Cc1cccc2ccccc12)NC(=O)[C@@H](Cc1ccccc1)NC(=O)[C@H](N)Cc1cccc2ccccc12)C(=O)N[C@@H](CCCCN)C(=O)N[C@@H](CCCCN)C(=O)N[C@@H](CCCCN)C(N)=O [Compound 9] (HELM PEPTIDE1{[N[C@H](Cc1cccc2ccccc12)C(=O)[*:2]].[dF].[O=C([C@@H](Cc1cccc2ccccc12)N[*:1])[*:2]].[dL].K.K.K.[am]}$$$$V2.0) .
Reply: > 150 µM

Ask: Give IC50 for CC(C)C[C@@H](NC(=O)[C@@H](Cc1ccc2ccccc2c1)NC(=O)[C@@H](Cc1ccccc1)NC(=O)[C@H](N)Cc1ccc2ccccc2c1)C(=O)N[C@@H](CCCCN)C(=O)N[C@@H](CCCCN)C(=O)N[C@@H](CCCCN)C(N)=O [Compound 4] (HELM PEPTIDE1{[N[C@H](Cc1ccc2ccccc2c1)C(=O)[*:2]].[dF].[O=C([C@@H](Cc1ccc2ccccc2c1)N[*:1])[*:2]].[dL].K.K.K.[am]}$$$$V2.0)
Reply: > 150 µM

Ask: Fill in IC50 for record CC(C)C[C@H](NC(=O)CN(CCCCN)C(=O)CN(CCCCN)C(=O)CNCCCCN)C(=O)N[C@@H](Cc1ccc2ccccc2c1)C(=O)N[C@@H](Cc1ccccc1)C(=O)N[C@@H](Cc1ccc2ccccc2c1)C(N)=O [Compound 23] (H-[Nlys][Nlys][Nlys]L[2Nal]F[2Nal]-NH2)
Reply: > 150 µM
